Target: nsp14 methyltransferase from SARS-CoV-2 (Severe acute respiratory syndrome coronavirus 2)
Experiment: Nsp14 MTase activity inhibition in vitro (EchoMS assay)
Type: biochemical
Conditions: recombinant nsp14 protein expressed in E. coli; dose-response curve
pIC50: −log10 of the molar value.
Measured pIC50 by item

compound: Cc1noc(-c2ccc(N)cc2)c1CSC[C@H]1O[C@@H](n2cc(-c3ccc(C#N)cc3)c3c(N)ncnc32)[C@H](O)[C@@H]1O [Compound 234b]
target under test: nsp14 methyltransferase from SARS-CoV-2 (Severe acute respiratory syndrome coronavirus 2)
pIC50: 7.52 to 8.00
--
compound: Cc1noc(-c2ccccc2)c1CSC[C@H]1O[C@@H](n2cc(CC3CCCCC3)c3c(N)ncnc32)[C@H](O)[C@@H]1O [Compound 135b]
target under test: nsp14 methyltransferase from SARS-CoV-2 (Severe acute respiratory syndrome coronavirus 2)
pIC50: 5.70 to 6.30
--
compound: Nc1ncnc2c1ccn2[C@@H]1O[C@H](CSCc2[nH]cnc2-c2ccccc2)[C@@H](O)[C@H]1O [Compound 104c]
target under test: nsp14 methyltransferase from SARS-CoV-2 (Severe acute respiratory syndrome coronavirus 2)
pIC50: 5.70 to 6.30
--
compound: Cc1n[nH]c(-c2ccccc2)c1CSC[C@H]1O[C@@H](n2ccc3c(N)ncnc32)[C@H](O)[C@@H]1O [Compound 51c]
target under test: nsp14 methyltransferase from SARS-CoV-2 (Severe acute respiratory syndrome coronavirus 2)
pIC50: 6.30 to 7.00
--
compound: Cc1cc(C#N)cc(C)c1-c1cn([C@@H]2O[C@H](CSCc3c(C)noc3-c3ccccc3)[C@@H](O)[C@H]2O)c2ncnc(N)c12
target under test: nsp14 methyltransferase from SARS-CoV-2 (Severe acute respiratory syndrome coronavirus 2)
pIC50: 7.52 to 8.00
--
compound: Cc1nsc(-c2ccccc2)c1CSC[C@H]1O[C@@H](n2ccc3c(N)ncnc32)[C@H](O)[C@@H]1O [Compound 54c]
target under test: nsp14 methyltransferase from SARS-CoV-2 (Severe acute respiratory syndrome coronavirus 2)
pIC50: 7.00 to 7.52
--
compound: Cn1cnc(-c2ccccc2)c1CSC[C@H]1O[C@@H](n2cc(C#Cc3cncnc3)c3c(N)ncnc32)[C@H](O)[C@@H]1O [Compound 237c]
target under test: nsp14 methyltransferase from SARS-CoV-2 (Severe acute respiratory syndrome coronavirus 2)
pIC50: 7.00 to 7.52
--
compound: Cc1noc(-c2ccccc2)c1CSC[C@H]1O[C@@H](n2cc(C#Cc3cnc4ccccc4n3)c3c(N)ncnc32)[C@H](O)[C@@H]1O [Compound 177b]
target under test: nsp14 methyltransferase from SARS-CoV-2 (Severe acute respiratory syndrome coronavirus 2)
pIC50: 7.00 to 7.52
--
compound: Cc1noc(-c2ccccc2)c1CSC[C@H]1O[C@@H](n2cc(C#Cc3ncc[nH]3)c3c(N)ncnc32)[C@H](O)[C@@H]1O [Compound 178b]
target under test: nsp14 methyltransferase from SARS-CoV-2 (Severe acute respiratory syndrome coronavirus 2)
pIC50: 7.00 to 7.52
--
compound: Cc1snc(-c2ccccc2)c1CSC[C@H]1O[C@@H](n2ccc3c(N)ncnc32)[C@H](O)[C@@H]1O [Compound 59c]
target under test: nsp14 methyltransferase from SARS-CoV-2 (Severe acute respiratory syndrome coronavirus 2)
pIC50: 7.00 to 7.52
--
compound: Cc1noc(-c2ccccc2)c1CSC[C@H]1O[C@@H](n2cc(C3C[C@@H]4CC[C@H]3C4)c3c(N)ncnc32)[C@H](O)[C@@H]1O (stereo in doubt) [Compound 136b]
target under test: nsp14 methyltransferase from SARS-CoV-2 (Severe acute respiratory syndrome coronavirus 2)
pIC50: 6.30 to 7.00
--
compound: Cc1noc(-c2ccccc2)c1CSC[C@H]1O[C@@H](n2cc(C3CCCC3)c3c(N)ncnc32)[C@H](O)[C@@H]1O [Compound 133b]
target under test: nsp14 methyltransferase from SARS-CoV-2 (Severe acute respiratory syndrome coronavirus 2)
pIC50: 6.30 to 7.00
--
compound: Cc1noc(-c2ccccc2)c1CSC[C@H]1O[C@@H](n2cc(-c3ccc(C(F)(F)F)cc3)c3c(N)ncnc32)[C@H](O)[C@@H]1O [Compound 145b]
target under test: nsp14 methyltransferase from SARS-CoV-2 (Severe acute respiratory syndrome coronavirus 2)
pIC50: 6.30 to 7.00

Where do the numbers come from? From patent EP4553080A1.
